# Experimental target: Cannabinoid receptor 1 (Homo sapiens, UniProt P21554); also: assay procedure not described here
# Sequence (P21554 whole entry): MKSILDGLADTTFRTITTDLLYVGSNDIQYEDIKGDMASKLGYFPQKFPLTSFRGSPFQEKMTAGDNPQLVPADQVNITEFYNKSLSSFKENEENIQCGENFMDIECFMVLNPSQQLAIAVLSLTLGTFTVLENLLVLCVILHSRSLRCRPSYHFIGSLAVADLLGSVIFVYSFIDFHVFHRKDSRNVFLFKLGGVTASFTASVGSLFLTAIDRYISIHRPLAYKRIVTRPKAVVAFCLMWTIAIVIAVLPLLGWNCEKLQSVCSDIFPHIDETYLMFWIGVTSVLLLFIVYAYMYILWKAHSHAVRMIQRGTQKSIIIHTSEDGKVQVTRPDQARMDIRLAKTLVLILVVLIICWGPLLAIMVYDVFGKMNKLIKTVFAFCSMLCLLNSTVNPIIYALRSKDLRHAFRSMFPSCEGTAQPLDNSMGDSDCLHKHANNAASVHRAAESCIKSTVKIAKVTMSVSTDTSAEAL

| Molecule | AC50 |
| --- | --- |
| CC1=C(/C=C/C(C)=C/C=C/C(C)=C/CO)C(C)(C)CCC1 | > 10 µM |
| Cc1ccc(C)c(OCCCC(C)(C)C(=O)O)c1 | > 10 µM |
| CCC[C@@H]1C[C@@H](C(=O)N[C@@H]([C@H]2O[C@H](SC)[C@H](O)[C@@H](O)[C@H]2O)[C@@H](C)O)N(C)C1 | > 10 µM |
| O=C1Nc2ccc(Cl)cc2C(c2ccccc2Cl)=NC1O (configuration not stated) | > 10 µM |
| CC(C)[C@H](N)C(=O)OCCOCn1cnc2c(=O)[nH]c(N)nc21 | > 10 µM |
| CCCC(C)(COC(N)=O)COC(N)=O [MEPROBAMATE] | > 10 µM |
| CCOC(=O)C(C)(C)Oc1ccc(Cl)cc1 [CLOFIBRATE] | > 10 µM |
| CCc1nc(N)nc(N)c1-c1ccc(Cl)cc1 | > 10 µM |
| CCOC(=O)c1ncn2c1CN(C)C(=O)c1cc(F)ccc1-2 | > 30 µM |
| CCCCCCCN(CC)CCCC(O)c1ccc(NS(C)(=O)=O)cc1 (configuration not stated) [IBUTILIDE] | > 30 µM |
| NC(=O)NC(=O)Cc1ccccc1 [PHENACEMIDE] | > 10 µM |
| C[C@@H]1C[C@H]2[C@@H]3CCC4=CC(=O)C=C[C@]4(C)[C@@]3(F)[C@@H](O)C[C@]2(C)[C@@]1(O)C(=O)CO | > 10 µM |
| CC=CC1=C(C(=O)O)N2C(=O)[C@@H](NC(=O)[C@H](N)c3ccc(O)cc3)[C@H]2SC1 | > 30 µM |
| O=C1c2cccc3c2[C@H](CCC3)CN1[C@@H]1CN2CCC1CC2 | > 30 µM |
| CC(O)(CS(=O)(=O)c1ccc(F)cc1)C(=O)Nc1ccc(C#N)c(C(F)(F)F)c1 (configuration not stated) [BICALUTAMIDE] | > 10 µM |
| CCOC(=O)c1ccc(N)cc1 | > 10 µM |
| CN(Cc1cnc2nc(N)nc(N)c2n1)c1ccc(C(=O)N[C@@H](CCC(=O)O)C(=O)O)cc1 [METHOTREXATE] | > 10 µM |
| C/C=C(/C(=C/C)c1ccc(O)cc1)c1ccc(O)cc1 | > 10 µM |
| O=C1Cc2cc(CCN3CCN(c4nsc5ccccc45)CC3)c(Cl)cc2N1 | > 10 µM |
| Cc1nc(Nc2ncc(C(=O)Nc3c(C)cccc3Cl)s2)cc(N2CCN(CCO)CC2)n1 | > 10 µM |
| C[C@@H]1C[C@H]2[C@@H]3C[C@H](F)C4=CC(=O)C=C[C@]4(C)[C@@]3(F)[C@@H](O)C[C@]2(C)[C@@]1(OC(=O)c1ccco1)C(=O)SCF [FLUTICASONE FUROATE] | 16.3 µM |
| O=C(O)Cc1ccccc1Oc1ccc(Cl)cc1Cl | > 10 µM |
| Cc1ccnc2c1NC(=O)c1cccnc1N2C1CC1 | > 10 µM |
| Fc1ccc([C@@H]2CCNC[C@H]2COc2ccc3c(c2)OCO3)cc1 | 2.72 µM |
| O=C1c2ccccc2C(=O)C1c1ccccc1 | > 10 µM |
| COc1cc(C)c(/C=C/C(C)=C/C=C/C(C)=C/C(=O)O)c(C)c1C | > 10 µM |
| CCCc1cc(=O)[nH]c(=S)[nH]1 | > 10 µM |
| COC(=O)[C@H]1[C@H]2C[C@@H]3c4[nH]c5cc(OC)ccc5c4CCN3C[C@H]2C[C@@H](OC(=O)c2cc(OC)c(OC)c(OC)c2)[C@@H]1OC | > 10 µM |
| CCOc1nc2cccc(C(=O)O)c2n1Cc1ccc(-c2ccccc2-c2nnn[nH]2)cc1 | > 10 µM |
| CC(C)(Oc1ccc(CCNC(=O)c2ccc(Cl)cc2)cc1)C(=O)O [BEZAFIBRATE] | > 10 µM |
| O=C(/C=C/c1cccc(S(=O)(=O)Nc2ccccc2)c1)NO | > 10 µM |
| CN(C)CCCN1c2ccccc2CCc2ccccc21 | 0.174 µM |
| CC(c1cc2ccccc2s1)N(O)C(N)=O (configuration not stated) | > 10 µM |
| Cc1cc(=O)n(-c2ccccc2)n1C [ANTIPYRINE] | > 10 µM |
| CCCc1nc2c(C)cc(-c3nc4ccccc4n3C)cc2n1Cc1ccc(-c2ccccc2C(=O)O)cc1 | > 30 µM |
| O=C(O)c1cccnc1Nc1cccc(C(F)(F)F)c1 | > 10 µM |
| Cc1cc(C)nc(NS(=O)(=O)c2ccc(N)cc2)n1 | > 10 µM |
